# pKd values compiled below
- Target entity: T1, EsCas13d, nuclease-dead (Eubacterium siraeum, UniProt B0MS50, R295A;H300A;R849A;H854A)
- T1 sequence: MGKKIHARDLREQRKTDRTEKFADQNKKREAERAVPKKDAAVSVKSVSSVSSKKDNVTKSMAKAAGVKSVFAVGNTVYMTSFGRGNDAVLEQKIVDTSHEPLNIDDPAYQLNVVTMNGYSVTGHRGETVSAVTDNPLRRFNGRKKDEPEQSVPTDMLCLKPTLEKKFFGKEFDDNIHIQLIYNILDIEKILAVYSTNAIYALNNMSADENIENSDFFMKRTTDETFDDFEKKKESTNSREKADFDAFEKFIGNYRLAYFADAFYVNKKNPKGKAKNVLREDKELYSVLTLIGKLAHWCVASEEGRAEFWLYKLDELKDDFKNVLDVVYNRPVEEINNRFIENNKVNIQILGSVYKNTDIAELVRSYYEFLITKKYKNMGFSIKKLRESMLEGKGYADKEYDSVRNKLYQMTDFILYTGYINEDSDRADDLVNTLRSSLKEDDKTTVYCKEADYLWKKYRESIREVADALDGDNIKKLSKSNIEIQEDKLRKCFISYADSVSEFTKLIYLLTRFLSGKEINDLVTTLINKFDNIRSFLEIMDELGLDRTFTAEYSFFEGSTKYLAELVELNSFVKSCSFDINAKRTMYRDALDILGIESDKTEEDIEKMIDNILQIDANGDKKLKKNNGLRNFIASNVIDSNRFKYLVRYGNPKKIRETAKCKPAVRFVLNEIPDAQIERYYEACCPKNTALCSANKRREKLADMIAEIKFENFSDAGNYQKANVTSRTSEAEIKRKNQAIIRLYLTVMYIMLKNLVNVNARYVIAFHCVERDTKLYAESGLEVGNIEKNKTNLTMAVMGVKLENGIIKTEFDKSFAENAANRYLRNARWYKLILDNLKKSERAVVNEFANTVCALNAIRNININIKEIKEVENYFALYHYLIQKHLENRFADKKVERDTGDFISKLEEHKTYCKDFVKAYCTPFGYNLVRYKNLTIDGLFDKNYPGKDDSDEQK
- Assay: crRNA (strand 1, pre-loaded); Mg2+; 40 mM Tris-HCl pH 7.5, 150 mM NaCl, 6 mM MgCl2, 1 mM DTT, 0.1% Tween-20, 0.2 mg/ml BSA; 25 C; 10 min per concentration, then washed
- Run conditions: tags: His6-TwinStrep-SUMO cleaved; N-terminal SNAP kept (SNAP-Surface 488); label: 3' end held by stalled T7 RNA polymerase
pKd: −log10 of the molar value.
Attribute measured: pKd

>>> recorded_value("target 1 insC 3' of 20,insG 3' of 4 (mixed) RNA 1: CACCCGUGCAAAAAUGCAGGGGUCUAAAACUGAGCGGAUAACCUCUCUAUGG RNA 2: GGGAAUGGAUCCACAUCUACGAAUUCGUACCACUAGAGAGGUUAUCCGCGUCACCGAGAUCGGAAGAGCACACGU")
7.94
>>> recorded_value("target 3 U2A,G4C (mixed) RNA 1: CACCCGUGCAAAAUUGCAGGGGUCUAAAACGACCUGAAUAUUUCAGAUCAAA RNA 2: GGGAAUGGAUCCACAUCUACGAAUUCGUUUUUGAUCUGAAAUAUUCACGACUGCAGAUCGGAAGAGCACACGU")
8.30
